// data source = paper PMC7252619

Target: EPHB4 (Homo sapiens)
Construct: purchased ReactionBiology
Sequence (P54760 16-987): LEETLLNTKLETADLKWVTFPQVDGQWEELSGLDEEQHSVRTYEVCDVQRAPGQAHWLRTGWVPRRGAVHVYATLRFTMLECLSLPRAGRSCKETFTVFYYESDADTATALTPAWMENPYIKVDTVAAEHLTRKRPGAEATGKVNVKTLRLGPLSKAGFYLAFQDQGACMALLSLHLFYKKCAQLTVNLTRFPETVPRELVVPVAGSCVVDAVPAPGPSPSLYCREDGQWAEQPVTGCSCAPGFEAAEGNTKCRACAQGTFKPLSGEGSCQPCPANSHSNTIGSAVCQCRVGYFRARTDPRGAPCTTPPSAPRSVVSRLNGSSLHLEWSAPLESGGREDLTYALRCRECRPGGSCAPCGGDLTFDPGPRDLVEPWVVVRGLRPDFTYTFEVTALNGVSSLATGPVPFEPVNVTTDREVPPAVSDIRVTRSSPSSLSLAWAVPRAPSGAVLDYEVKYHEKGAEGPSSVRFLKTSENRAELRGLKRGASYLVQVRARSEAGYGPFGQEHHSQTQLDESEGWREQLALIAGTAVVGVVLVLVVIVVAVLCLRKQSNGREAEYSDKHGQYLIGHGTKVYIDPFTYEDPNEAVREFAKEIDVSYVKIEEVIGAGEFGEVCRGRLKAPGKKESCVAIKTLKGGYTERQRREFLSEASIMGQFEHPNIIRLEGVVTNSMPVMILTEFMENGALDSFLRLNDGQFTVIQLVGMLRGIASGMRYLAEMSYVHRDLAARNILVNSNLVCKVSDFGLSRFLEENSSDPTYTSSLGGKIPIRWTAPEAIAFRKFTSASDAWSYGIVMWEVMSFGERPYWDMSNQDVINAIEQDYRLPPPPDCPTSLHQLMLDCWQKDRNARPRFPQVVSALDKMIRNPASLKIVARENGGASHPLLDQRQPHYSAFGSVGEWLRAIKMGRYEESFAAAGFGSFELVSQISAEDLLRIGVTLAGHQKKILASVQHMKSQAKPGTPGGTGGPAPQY
Test: Kinase activity test (ReactionBiology), % enzyme activity relative to DMSO;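 on % Enzyme Activity (relative to DMSO controls), Data 1: EPHB4 was one of ten selected kinases in the screening panel, with enzyme activity expressed as a percentage of DMSO controls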
Type: biochemical
Conditions: EPHB4; 10 uM; replicate Data 1
Each entry below carries its reported % Enzyme Activity (relative to DMSO controls), Data 1.
Measured parameter: % Enzyme Activity (relative to DMSO controls), Data 1 (%)

>>> print(df.to_string())
                                   compound  reported_value
0  C[C@]12CCC(=O)C=C1CC[C@@H]1[C@@H]2[C@@H](O)C[C@@]2(C)[C@H]1CC[C@]2(O)C(=O)CO [Hydrocortisone]           91.79
1  O=C1Nc2ccc(Cl)cc2[C@@](C#CC2CC2)(C(F)(F)F)O1 [Efavirenz]           93.32
2  COc1ccc2c3c1O[C@H]1C[C@@H](O)C=C[C@@]31CCN(C)C2 [Galantamine]           95.37
3  CS(=O)(=O)c1ccc(C2=C(c3ccccc3)C(=O)OC2)cc1 [Rofecoxib]           77.99
4  CCCCC1C(=O)N(c2ccccc2)N(c2ccccc2)C1=O [Phenylbutazone]           94.37
5  C/C(O)=C(\C#N)C(=O)Nc1ccc(C(F)(F)F)cc1 [Teriflunomide]           96.08

----------
Each entry below carries its reported % Enzyme Activity (relative to DMSO controls), Average.
Molecular target: NEK2 (Homo sapiens)
Construct: purchased ReactionBiology
Sequence (P51955 1-445): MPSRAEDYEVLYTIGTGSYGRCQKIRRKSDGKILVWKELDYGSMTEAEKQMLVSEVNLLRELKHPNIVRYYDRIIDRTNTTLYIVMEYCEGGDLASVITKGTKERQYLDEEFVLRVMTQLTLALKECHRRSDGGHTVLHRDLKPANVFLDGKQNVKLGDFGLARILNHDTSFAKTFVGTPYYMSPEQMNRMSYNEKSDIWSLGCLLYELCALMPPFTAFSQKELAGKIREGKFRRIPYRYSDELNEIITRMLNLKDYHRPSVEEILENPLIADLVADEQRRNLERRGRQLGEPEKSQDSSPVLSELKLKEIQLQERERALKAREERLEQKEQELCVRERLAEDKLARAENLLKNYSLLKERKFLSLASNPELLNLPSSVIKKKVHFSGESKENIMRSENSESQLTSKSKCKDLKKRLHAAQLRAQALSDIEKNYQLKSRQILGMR
Assay: Kinase activity test (ReactionBiology), % enzyme activity relative to DMSO;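 on % Enzyme Activity (relative to DMSO controls), Average: FDA-approved drugs chosen by structure-based repositioning, each screened at 10 or 1 µM for kinase activity, expressed as percent of DMSO controls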
Assay type: biochemical
Details: NEK2; 1 uM; Average
Measured parameter: % Enzyme Activity (relative to DMSO controls), Average (%)

In [3]: df
Out[3]:
                                   compound        target_entity  reported_value
0       CC(=O)CCCCn1c(=O)c2c(ncn2C)n(C)c1=O  NEK2 (Homo sapiens)           90.71
1  C[C@H](O)[C@H](O)[C@H]1CNc2nc(N)[nH]c(=O)c2N1  NEK2 (Homo sapiens)           93.31
2  N[C@H]1C(O)O[C@H](CO)[C@@H](O)[C@@H]1O (stereo partly drawn)  NEK2 (Homo sapiens)           82.84
3                  Nc1nc2[nH]cnc2c(=S)[nH]1  NEK2 (Homo sapiens)           92.40
4            O=C(O)c1cc(-c2ccc(F)cc2F)ccc1O  NEK2 (Homo sapiens)           92.13
5              Nc1nc2c(ncn2COCCO)c(=O)[nH]1  NEK2 (Homo sapiens)           93.64
6  Cc1nc(=O)c2cc(CN(C)c3ccc(C(=O)N[C@@H](CCC(=O)O)C(=O)O)s3)ccc2[nH]1  NEK2 (Homo sapiens)          103.04
7  Cc1nnc(C(C)C)n1C1C[C@H]2CC[C@@H](C1)N2CC[C@H](NC(=O)C1CCC(F)(F)CC1)c1ccccc1 (stereo in doubt)  NEK2 (Homo sapiens)           95.71
8             CCc1nc(N)nc(N)c1-c1ccc(Cl)cc1  NEK2 (Homo sapiens)          106.09
